Target: T1, human IL-12 (human, UniProt P29460 23-328; P29459 23-219)
T1 construct: Recombinant (Peprotech); FLAG-tagged IL-12 in the flow cytometry assays, biotinylated in the IL-12Rβ2 assay; also called hIL-12
T1 sequence 1: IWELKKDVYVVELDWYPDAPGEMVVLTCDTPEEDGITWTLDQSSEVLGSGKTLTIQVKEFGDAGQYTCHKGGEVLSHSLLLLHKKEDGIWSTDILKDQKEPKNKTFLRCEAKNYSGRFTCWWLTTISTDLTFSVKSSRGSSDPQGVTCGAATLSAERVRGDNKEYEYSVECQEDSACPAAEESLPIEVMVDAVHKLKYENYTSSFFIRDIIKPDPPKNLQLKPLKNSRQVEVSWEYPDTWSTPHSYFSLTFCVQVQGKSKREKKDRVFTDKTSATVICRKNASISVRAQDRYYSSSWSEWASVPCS
T1 sequence 2: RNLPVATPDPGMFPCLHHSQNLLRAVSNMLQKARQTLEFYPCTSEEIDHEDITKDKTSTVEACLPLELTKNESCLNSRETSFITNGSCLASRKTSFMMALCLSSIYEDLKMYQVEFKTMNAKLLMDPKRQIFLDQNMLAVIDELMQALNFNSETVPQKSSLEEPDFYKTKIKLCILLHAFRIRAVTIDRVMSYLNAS
Assay: ELISA, coated IL-12

{"binder": "Antibody 175 (antibody, human IgG1, kappa, V domains shown) VH: EVQLVQSGAEVKKPGATVKISCKASGYAFSDYYLHWVRQAPEKGLEWMGWIDPENGDTEYAPKFQGRVTITADTSTDTGYLELSSLRSEDTAVYYCAANKELRYFDVWGQGTLVTVSS VL: DIQMTQSPSSVSASVGDRVTITCRASQSISINLHWYQQKPGKAPKLLIYFASQSISGVPSRFSGSGSGTDFSLTINSLQTEDFATYYCQQSNSFPLTFGGGTKVEIKR", "binding result": "binds"}
{"binder": "Antibody 204 (antibody, human IgG1, kappa, V domains shown, not the murine PMA204) VH: QVQLVQSGAEVEKPGASVKVSCKASGYTFTDYYLHWVRQAPGQGLEWMGWIDPENGDTEYAPKFQGGVTMTTDTSTSTAYMELRSLRSDDTAVYYCAANKELRYFDVWGQGTMVTVSS VL: EIVMTQSPATLSVSPGERATLSCRASQSISINLHWYQQKPGQAPRLLIYFASQSISGIPARFSGSGSGTEFTLTISSLQSEDFAVYYCQQSNSFPLTFGGGTKVEIKR", "binding result": "binds"}
{"binder": "Antibody 200 (antibody, human IgG1, kappa, V domains shown) VH: QVQLVQSGAEVKKPGASVKVSCKASGYTLTDYYLHWVRQAPGQGLEWMGWIDPENGDTEYAPKFQGRVTMTTDTSTSTAYMELRSLRSDDTAVYYCAANKELRYFDVWGQGTMVTVSS VL: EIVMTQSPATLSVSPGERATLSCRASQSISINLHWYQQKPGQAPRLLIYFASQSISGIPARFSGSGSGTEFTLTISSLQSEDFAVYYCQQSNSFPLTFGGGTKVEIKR", "binding result": "binds"}
